System: 313798-341-R-J2-PDC spheroids, viability;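 also: spheroids exposed to compounds for seven days; 100% = DMSO vehicle control viability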
Assay: Anticancer human tumor 313798-341-R-J2-PDC patient-derived cervical squamous cell carcinoma cell line growth inhibition [PI3K]
Settings: second compound 0.01 µM; first compound 3.16 µM; stronger effect = lower value; spheroids with HUVEC and MSC
MEASUREMENT_KIND: viability, T/C (%)

>>> observed_result("CC(C)NCC(C(=O)N1CCN(c2ncnc3c2C(C)CC3O)CC1)c1ccc(Cl)cc1 (stereo unspecified) + COc1c(OCCCN2CCOCC2)ccc2c3n(c(=NC(=O)c4cnc(N)nc4)nc12)CCN3")
39.2
>>> observed_result("Cn1nccc1Nc1nccc(-c2ccn(C(CO)c3ccc(Cl)c(F)c3)c(=O)c2)n1 (stereo unspecified) + CC(Nc1ccc2c(c1)OCCn1cc(N3C(=O)OCC3C(F)F)nc1-2)C(N)=O")
121
>>> observed_result("CCCS(=O)(=O)Nc1ccc(F)c(C(=O)c2c[nH]c3ncc(-c4ccc(Cl)cc4)cc23)c1F + CC(Nc1ccc2c(c1)OCCn1cc(N3C(=O)OCC3C(F)F)nc1-2)C(N)=O")
104
>>> observed_result("CNC(=O)c1ccc(N2C(=S)N(c3ccc(C#N)c(C(F)(F)F)c3)C(=O)C2(C)C)cc1F + CC(Nc1ccc2c(c1)OCCn1cc(N3C(=O)OCC3C(F)F)nc1-2)C(N)=O")
101
>>> observed_result("CC(Cn1ccc(-c2ccc(C#N)c(Cl)c2)n1)NC(=O)c1cc(C(C)O)[nH]n1 (stereo unspecified) + CC(Nc1ccc2c(c1)OCCn1cc(N3C(=O)OCC3C(F)F)nc1-2)C(N)=O")
100
>>> observed_result("CC1(C)CCC(Nc2ncc(C(F)(F)F)c(-c3c[nH]c4c(P(C)(C)=O)c(C#N)ccc34)n2)CN1 (stereo unspecified) + CC(Nc1ccc2c(c1)OCCn1cc(N3C(=O)OCC3C(F)F)nc1-2)C(N)=O")
49.4
>>> observed_result("CC1(C)CCC(Nc2ncc(C(F)(F)F)c(-c3c[nH]c4c(P(C)(C)=O)c(C#N)ccc34)n2)CN1 (stereo unspecified) + COc1c(OCCCN2CCOCC2)ccc2c3n(c(=NC(=O)c4cnc(N)nc4)nc12)CCN3")
43.1
>>> observed_result("C=CC(=O)N1CCN(c2nc(=O)n(-c3c(C)ccnc3C(C)C)c3nc(-c4c(O)cccc4F)c(F)cc23)C(C)C1 (stereo unspecified) + COc1c(OCCCN2CCOCC2)ccc2c3n(c(=NC(=O)c4cnc(N)nc4)nc12)CCN3")
112
>>> observed_result("C#Cc1c(F)ccc2cc(O)cc(-c3ncc4c(N5CC6CCC(C5)N6)nc(OCC56CCCN5CC(F)C6)nc4c3F)c12 (stereo unspecified) + COc1c(OCCCN2CCOCC2)ccc2c3n(c(=NC(=O)c4cnc(N)nc4)nc12)CCN3")
98.7
>>> observed_result("C=CC(=O)N1CCN(c2nc(=O)n(-c3c(C)ccnc3C(C)C)c3nc(-c4c(O)cccc4F)c(F)cc23)C(C)C1 (stereo unspecified) + CC(Nc1ccc2c(c1)OCCn1cc(N3C(=O)OCC3C(F)F)nc1-2)C(N)=O")
102
>>> observed_result("Cn1ncc(Cl)c1-c1cc(C(=O)NC(CN)Cc2cccc(F)c2)sc1Cl (stereo unspecified) + CC(Nc1ccc2c(c1)OCCn1cc(N3C(=O)OCC3C(F)F)nc1-2)C(N)=O")
38.1
>>> observed_result("CC1(C)CCC(CN2CCN(c3ccc(C(=O)NS(=O)(=O)c4ccc(NCC5CCOCC5)c([N+](=O)[O-])c4)c(Oc4cnc5[nH]ccc5c4)c3)CC2)=C(c2ccc(Cl)cc2)C1 + COc1c(OCCCN2CCOCC2)ccc2c3n(c(=NC(=O)c4cnc(N)nc4)nc12)CCN3")
66.1
>>> observed_result("CC1(C)CCC(CN2CCN(c3ccc(C(=O)NS(=O)(=O)c4ccc(NCC5CCOCC5)c([N+](=O)[O-])c4)c(Oc4cnc5[nH]ccc5c4)c3)CC2)=C(c2ccc(Cl)cc2)C1 + CC(Nc1ccc2c(c1)OCCn1cc(N3C(=O)OCC3C(F)F)nc1-2)C(N)=O")
84.2
>>> observed_result("C[C@@H](NC(=O)c1ncnc(N)c1Cl)c1ncc(C(=O)Nc2cc(C(F)(F)F)c(Cl)cn2)s1 + CC(Nc1ccc2c(c1)OCCn1cc(N3C(=O)OCC3C(F)F)nc1-2)C(N)=O")
110
>>> observed_result("CNC(=O)c1ccc(N2C(=S)N(c3ccc(C#N)c(C(F)(F)F)c3)C(=O)C2(C)C)cc1F + COc1c(OCCCN2CCOCC2)ccc2c3n(c(=NC(=O)c4cnc(N)nc4)nc12)CCN3")
94.7
>>> observed_result("C[C@@H](NC(=O)c1ncnc(N)c1Cl)c1ncc(C(=O)Nc2cc(C(F)(F)F)c(Cl)cn2)s1 + COc1c(OCCCN2CCOCC2)ccc2c3n(c(=NC(=O)c4cnc(N)nc4)nc12)CCN3")
104
>>> observed_result("Cn1nccc1Nc1nccc(-c2ccn(C(CO)c3ccc(Cl)c(F)c3)c(=O)c2)n1 (stereo unspecified) + COc1c(OCCCN2CCOCC2)ccc2c3n(c(=NC(=O)c4cnc(N)nc4)nc12)CCN3")
94
>>> observed_result("CC(C)NCC(C(=O)N1CCN(c2ncnc3c2C(C)CC3O)CC1)c1ccc(Cl)cc1 (stereo unspecified) + CC(Nc1ccc2c(c1)OCCn1cc(N3C(=O)OCC3C(F)F)nc1-2)C(N)=O")
41.1
>>> observed_result("CCCS(=O)(=O)Nc1ccc(F)c(C(=O)c2c[nH]c3ncc(-c4ccc(Cl)cc4)cc23)c1F + COc1c(OCCCN2CCOCC2)ccc2c3n(c(=NC(=O)c4cnc(N)nc4)nc12)CCN3")
97.1
>>> observed_result("C#Cc1c(F)ccc2cc(O)cc(-c3ncc4c(N5CC6CCC(C5)N6)nc(OCC56CCCN5CC(F)C6)nc4c3F)c12 (stereo unspecified) + CC(Nc1ccc2c(c1)OCCn1cc(N3C(=O)OCC3C(F)F)nc1-2)C(N)=O")
116
>>> observed_result("Cn1ncc(Cl)c1-c1cc(C(=O)NC(CN)Cc2cccc(F)c2)sc1Cl (stereo unspecified) + COc1c(OCCCN2CCOCC2)ccc2c3n(c(=NC(=O)c4cnc(N)nc4)nc12)CCN3")
30.8
